Provenance of the data: patent US20220195063A1

TARGET: human SIRPαBIT expressed on cells (human) (UniProt P78324)
Sequence (P78324 31-504): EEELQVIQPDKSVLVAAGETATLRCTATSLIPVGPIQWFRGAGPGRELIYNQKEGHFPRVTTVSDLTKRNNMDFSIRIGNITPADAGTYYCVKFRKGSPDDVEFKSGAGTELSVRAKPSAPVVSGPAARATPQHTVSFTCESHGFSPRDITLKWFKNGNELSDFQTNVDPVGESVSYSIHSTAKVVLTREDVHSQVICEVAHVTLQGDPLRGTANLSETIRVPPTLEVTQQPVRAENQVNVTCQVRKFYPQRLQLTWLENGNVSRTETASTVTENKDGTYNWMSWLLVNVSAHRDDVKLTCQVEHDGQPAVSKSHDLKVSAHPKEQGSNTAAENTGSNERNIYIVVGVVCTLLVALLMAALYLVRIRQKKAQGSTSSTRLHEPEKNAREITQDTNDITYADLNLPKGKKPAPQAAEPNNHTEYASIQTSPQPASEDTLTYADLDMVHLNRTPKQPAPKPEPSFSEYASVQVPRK
TEST DETAILS: flow cytometry, U937 cells
Measured EC50, listed per entry.
Give the number; µg/mL is assumed, so skip it.

Entry anti-SIRPα antibody 13 humanized (antibody, human IgG1, V domains shown, Humanized, human IgG1 LALA / kappa) VH: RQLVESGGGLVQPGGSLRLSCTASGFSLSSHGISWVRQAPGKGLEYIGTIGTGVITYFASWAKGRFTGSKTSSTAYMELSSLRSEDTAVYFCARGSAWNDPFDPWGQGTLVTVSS VL: AIQMTQSPSSLSASVGDRVTITCQASQSVYGNNDLAWYQQKPGKAPKLLIYLASTLATGVPSRFSGSGSGTDFTLTISSLQPEDFATYYCLGGGDDEADNVFGGGTKVEIKR : reported EC50 = ?
0.14

Moving on to the next binder.
Entry anti-SIRPα antibody 2 (antibody, human IgG1, kappa, L234A L235A, V domains shown, Rabbit variable regions on human IgG1 LALA / kappa) VH: QSVEESGGRLVTPGTPLTLTCTVSGFSLSNYAMHWVRQAPGKGLEWIGIIYTGGATSYATWAKGQFTISKTSTTVDLKITSPTTEDTATYFCARGDRDGYAYFNIWGPGTLVTVSL VL: QIVMTQTPFSVSAVVGGTVTIKCQASHNIGSWLAWYQQKPGQRPKLLIYDASTLASGVSSRFKGSGSGTEFTLTISGVESADAATYYCQQGYGISYVHNVFGGGTEVVVKR : reported EC50 = ?
0.14
